Origin of values: PubChem BioAssay AID1851

Reported values of activity, negative = inhibition for individual entries
# TARGET_OR_TEST_SYSTEM: Cytochrome P450 2D6 (Homo sapiens) (UniProt P10635)
# Sequence (P10635 whole entry, looked up): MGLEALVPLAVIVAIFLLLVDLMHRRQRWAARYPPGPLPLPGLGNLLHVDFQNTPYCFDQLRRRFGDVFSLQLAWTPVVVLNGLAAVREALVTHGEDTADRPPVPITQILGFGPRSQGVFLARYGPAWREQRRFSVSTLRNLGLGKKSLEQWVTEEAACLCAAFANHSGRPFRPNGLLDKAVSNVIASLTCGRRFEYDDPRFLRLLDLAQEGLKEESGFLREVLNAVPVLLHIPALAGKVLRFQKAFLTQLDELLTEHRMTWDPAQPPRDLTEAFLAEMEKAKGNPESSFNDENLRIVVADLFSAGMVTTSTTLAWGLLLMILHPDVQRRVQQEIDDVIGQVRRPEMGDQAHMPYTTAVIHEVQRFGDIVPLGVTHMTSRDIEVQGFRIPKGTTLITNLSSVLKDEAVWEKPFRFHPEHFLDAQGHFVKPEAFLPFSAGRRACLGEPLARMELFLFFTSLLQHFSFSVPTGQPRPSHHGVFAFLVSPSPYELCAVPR
# PROTOCOL_TEXT: Cytochrome panel assay with activity outcomes; also: % is scaled to controls: 0 for no effect and ±100 for the full control effect
# CONDITION_NOTES: recombinant CYP, pro-luciferin dealkylation, luminescence, p450-cyp2d6; series mostly up to 57.1 µM
The campaign covered roughly 16,000 compounds. About 2,600 (16%) were called active. Inconclusive results (about 20%) are left out. For the sample, actives were picked, then their nearest neighbours and some compounds at random.

Below: 4 compounds and their reported activity, negative = inhibition.
CC(C)CC(=O)C[C@H](O)C(Cl)(Cl)Cl :: 2.83% [at 11.4 µM] (inactive)
c1cc(C2N3CCCN2CC3)ccn1 (stereo not given) :: 15.8% [at 11.4 µM] (inactive)
N[C@@H](CSC1c2ccccc2-c2ccccc21)C(=O)O :: -14.3% [at 11.4 µM] (inactive)
NCCP(=O)(O)O :: 19.4% [at 11.4 µM] (inactive)

Q: Request the reported activity, negative = inhibition associated with CC[C@]1(OC(=O)CN)C(=O)OCc2c1cc1n(c2=O)Cc2cc3ccccc3nc2-1
Result: -0.998% [at 11.4 µM] (inactive)

Q: Please answer likewise for O=P(O)(O)CCP(=O)(O)O
Result: 10.1% [at 11.4 µM] (inactive)

Q: // same read-out, input: O=C(C[C@H](c1ccccc1)c1c(O)c2ccccc2oc1=O)c1ccccc1
Result: 12.6% [at 11.4 µM] (inactive)

Q: Thanks! And COc1cc(CCN)c(OC)c(OC)c1 ?
Result: 0.204% [at 11.4 µM] (inactive)

Q: How about O=[N+]([O-])c1cc(-c2ccc([As](=O)(O)O)cc2)ccc1[As](=O)(O)O ?
Result: 14% [at 11.4 µM] (inactive)

Q: Next up: Nc1nc(N)c(N=Nc2ccc([As](=O)(O)O)c(O)c2)c(N)n1
Result: 12.7% [at 11.4 µM] (inactive)
